Target: Kappa-type opioid receptor (Homo sapiens) (UniProt P41145)
Sequence (P41145 whole entry): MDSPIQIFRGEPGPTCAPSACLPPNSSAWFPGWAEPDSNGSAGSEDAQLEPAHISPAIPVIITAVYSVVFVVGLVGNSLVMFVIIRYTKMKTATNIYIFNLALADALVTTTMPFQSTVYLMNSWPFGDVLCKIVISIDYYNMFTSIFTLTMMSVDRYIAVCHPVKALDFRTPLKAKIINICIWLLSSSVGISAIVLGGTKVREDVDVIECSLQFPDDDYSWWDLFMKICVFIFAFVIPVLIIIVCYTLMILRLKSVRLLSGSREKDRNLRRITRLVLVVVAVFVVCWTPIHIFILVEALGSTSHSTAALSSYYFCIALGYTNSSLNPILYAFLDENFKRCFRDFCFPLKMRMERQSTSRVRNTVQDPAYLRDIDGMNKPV
Test: Antagonist activity at human kappa opioid receptor expressed in CHO cell membrane assessed as inhibition of U69,593-induced [35S]GTPgammaS binding after 1 hr by scintillation counting method
Assay type: functional, cell membranes
Would you kindly list Ke for each of these compounds?
Give bare numbers, in nM.

Study these solved cases before continuing.
> print(dat)
                                smiles.data  recorded.result
1  CC(C)[C@@H](CN1CCC(c2ccccn2)CC1)NC(=O)[C@H]1Cc2ccc(O)cc2CN1             0.43
2  CC(C)[C@@H](CN1CCC(c2cccnc2)CC1)NC(=O)[C@H]1Cc2ccc(O)cc2CN1             0.51
3  CC(C)[C@@H](CN1CCC(c2ccncc2)CC1)NC(=O)[C@H]1Cc2ccc(O)cc2CN1             0.51
4  CC(C)[C@@H](CN1CCC(C)(c2cccnc2)CC1)NC(=O)[C@H]1Cc2ccc(O)cc2CN1             0.18
5  CC(C)[C@@H](CN1CCC(C)(c2ccncc2)CC1)NC(=O)[C@H]1Cc2ccc(O)cc2CN1             1.75

Q) Any idea what Ke was measured for `CC(C)[C@@H](CN1CCC(c2ccsc2)CC1)NC(=O)[C@H]1Cc2ccc(O)cc2CN1` ?
A) 0.12
